Data credit: patent US20240301062A1

Exercise: for every item that follows, state its recorded Emax ratio to BG87P.
# test-system: T1, human claudin 6 (CLDN6) (human, UniProt P56747 1-220)
# T1 construct: also called human CLDN6; hCLDN6
# T1 sequence: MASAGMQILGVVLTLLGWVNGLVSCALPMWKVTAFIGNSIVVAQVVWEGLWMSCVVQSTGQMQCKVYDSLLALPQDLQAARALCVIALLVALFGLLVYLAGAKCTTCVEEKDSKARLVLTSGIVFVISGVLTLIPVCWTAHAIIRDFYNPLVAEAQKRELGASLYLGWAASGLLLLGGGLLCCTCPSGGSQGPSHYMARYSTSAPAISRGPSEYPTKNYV
# assay-notes: FACS, PA-1 cells (endogenous CLDN6)
Numbers only, in ratio.

// known answers, use as guide
binder: BG87P-22 (antibody, V domains shown) VH: QVQLVQSGAEVKKPGASVKVSCKASGYSFTDYHINWVRQAPGQRLEWMGWIYPGSGYTKYNEKFKGRVTITRDTSASTAYMELSSLRSEDTAVYFCARSGIYHYVSSYYFDHWGKGTTVTVSS VL: DIQMTQSPSTLSASVGDRVTITCKASQDVGTAVAWYQQKPGKAPKLLIYWASTRHTGVPSRFSGSGSGTEFTLTISSLQPDDFATYYCQQYSSYTFGGGTKVEIK
Emax ratio to BG87P, ratio: 0.54

binder: BG87P-21 (antibody, V domains shown) VH: QVQLVQSGAEVKKPGASVKVSCKASGYSFTDYHINWVRQAPGQRLEWMGWIYPGSGYTKYNEKFKGRVTITRDTSASTAYMELSSLRSEDTAVYYCARSGIYHYVSSYYFDHWGKGTTVTVSS VL: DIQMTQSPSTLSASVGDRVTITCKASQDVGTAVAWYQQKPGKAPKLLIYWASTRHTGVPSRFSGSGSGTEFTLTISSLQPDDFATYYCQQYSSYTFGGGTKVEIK
Emax ratio to BG87P, ratio: 0.61

binder: BG87P-24 (antibody, V domains shown) VH: QVQLVQSGAEVKKPGASVKVSCKASGYSFTDYHINWVRQAPGQRLEWMGWIYPGSGYTKYNEKFKGRVTLTRDTSASTAYMELSSLRSEDTAVYYCARSGIYHYVSSYYFDHWGKGTTVTVSS VL: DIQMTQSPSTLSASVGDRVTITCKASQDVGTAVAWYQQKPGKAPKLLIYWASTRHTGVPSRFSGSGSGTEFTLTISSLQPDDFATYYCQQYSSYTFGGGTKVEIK
Emax ratio to BG87P, ratio: 0.5

binder: chimeric BG87P antibody (chBG87P) (antibody, V domains shown) VH: QIQLQQSGPELVKPGASVKISCKASGYSFTDYHINWVKQRPGQGLEWIGWIYPGSGYTKYNEKFKVKATLTVDTSSSTAYMHLTSLTSEDSAVYFCARSGIYHYVSSYYFDHWGQGTTLTVSS VL: DIVMTQSHTFMSTSVGDRVSITCKASQDVGTAVAWYQQKPGQSPKLLIYWASTRHTGVPDRFTGSGSGTDFTLTISNVQSEDLADYFCQQYSSYTFGGGTKLEIK
Emax ratio to BG87P, ratio: 1

binder: BG87P-26 (antibody, V domains shown) VH: QIQLVQSGAEVKKPGASVKVSCKASGYSFTDYHINWVRQAPGQRLEWMGWIYPGSGYTKYNEKFKGRVTITRDTSASTAYMELSSLRSEDTAVYFCARSGIYHYVSSYYFDHWGKGTTVTVSS VL: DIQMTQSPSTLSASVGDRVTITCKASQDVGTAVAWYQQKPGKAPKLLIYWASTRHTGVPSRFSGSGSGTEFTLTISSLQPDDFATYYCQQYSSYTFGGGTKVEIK
Emax ratio to BG87P, ratio: 0.54

binder: BG87P-23 (antibody, V domains shown) VH: QIQLVQSGAEVKKPGASVKVSCKASGYSFTDYHINWVRQAPGQRLEWMGWIYPGSGYTKYNEKFKGRVTITRDTSASTAYMELSSLRSEDTAVYYCARSGIYHYVSSYYFDHWGKGTTVTVSS VL: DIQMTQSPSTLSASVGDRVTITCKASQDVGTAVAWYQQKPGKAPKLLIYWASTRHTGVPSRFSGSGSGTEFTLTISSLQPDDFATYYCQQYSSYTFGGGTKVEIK
Emax ratio to BG87P, ratio: 0.58

Let us examine a further case.
Query block: Could you tell me which Emax ratio to BG87P is on file for BG87P-z0 (antibody, V domains shown) VH: QVQLVQSGAEVKKPGASVKVSCKASGYTFTDYHINWVRQAPGQRLEWMGWIYPGSGYTKYNEKFKVRVTITRDTSASTAYMELSSLRSEDTAVYYCARSGIYHYVSSYYFDHWGKGTTVTVSS VL: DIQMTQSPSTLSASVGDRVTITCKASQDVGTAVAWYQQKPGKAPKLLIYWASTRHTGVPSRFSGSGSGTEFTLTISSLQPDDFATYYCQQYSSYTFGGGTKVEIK ?
Result block: 0.43
